Where these numbers come from: PubChem BioAssay (NCATS)

assay remarks: qHTS assay for small molecule agonists of the antioxidant response element (ARE) signaling pathway measured by Nrf2-dependant transcriptional activity - cell viability counter screen (AID 720653); also: potency is read from the fitted curve at half-maximal effect
experimental context: ARE-bla HepG2 viability, CellTiter-Glo ATP luminescence, 16 h
Inconclusive results are not listed. The source made the active and inactive calls. Calls follow the shape of the dose curve; as a rule, active = well fitted cell-killing curve with a large enough effect in the repeat runs; inconclusive = weak or mixed curves; inactive = flat fitted curve, though single readings scatter.
recorded metric: Potency

Task: Reported Potency for "[Cu+2].[O-]c1cccc2cccnc12.[O-]c1cccc2cccnc12" : what is it?
Output: 11.2 µM (active)

Task: Thanks! And "CC[C@H](C)[C@H]1O[C@]2(C=C[C@@H]1C)C[C@@H]1C[C@@H](C/C=C(\C)[C@@H](O[C@H]3C[C@H](OC)[C@@H](O[C@H]4C[C@H](OC)[C@@H](NC)[C@H](C)O4)[C@H](C)O3)[C@@H](C)/C=C/C=C3\CO[C@@H]4[C@H](O)C(C)=C[C@@H](C(=O)O1)[C@]34O)O2" ?
Output: 25.1 µM (active)

Task: Thanks! And "CCC[CH2][Sn]([CH2]CCC)([CH2]CCC)[O]C(=O)c1ccccc1" ?
Output: 3.98 µM (active)

Task: Thanks! And "C[C@@H]1CC[C@@]2(OC1)O[C@H]1[C@@H](O)[C@H]3[C@@H]4CC[C@H]5C[C@@H](O[C@@H]6O[C@H](CO)[C@H](O[C@@H]7O[C@H](CO)[C@@H](O)[C@H](O[C@@H]8OC[C@@H](O)[C@H](O)[C@H]8O)[C@H]7O[C@@H]7O[C@H](CO)[C@@H](O)[C@H](O[C@@H]8O[C@H](CO)[C@@H](O)[C@H](O)[C@H]8O)[C@H]7O)[C@H](O)[C@H]6O)[C@H](O)C[C@]5(C)[C@H]4CC[C@]3(C)[C@H]1[C@@H]2C" ?
Output: 17.8 µM (active)

Task: Thanks! And "CC/C(=C(\c1ccc(O)cc1)c1ccc(OCCN(C)C)cc1)c1ccccc1" ?
Output: 25.1 µM (active)

Task: Thanks! And "CCC[CH2][Sn]([CH2]CCC)[CH2]CCC" ?
Output: 15.8 µM (active)

---

I'd appreciate it if you could supply Potency values for the items below.
assay system: Glucocorticoid receptor (Homo sapiens) (UniProt P04150)
Sequence (P04150 whole entry, looked up): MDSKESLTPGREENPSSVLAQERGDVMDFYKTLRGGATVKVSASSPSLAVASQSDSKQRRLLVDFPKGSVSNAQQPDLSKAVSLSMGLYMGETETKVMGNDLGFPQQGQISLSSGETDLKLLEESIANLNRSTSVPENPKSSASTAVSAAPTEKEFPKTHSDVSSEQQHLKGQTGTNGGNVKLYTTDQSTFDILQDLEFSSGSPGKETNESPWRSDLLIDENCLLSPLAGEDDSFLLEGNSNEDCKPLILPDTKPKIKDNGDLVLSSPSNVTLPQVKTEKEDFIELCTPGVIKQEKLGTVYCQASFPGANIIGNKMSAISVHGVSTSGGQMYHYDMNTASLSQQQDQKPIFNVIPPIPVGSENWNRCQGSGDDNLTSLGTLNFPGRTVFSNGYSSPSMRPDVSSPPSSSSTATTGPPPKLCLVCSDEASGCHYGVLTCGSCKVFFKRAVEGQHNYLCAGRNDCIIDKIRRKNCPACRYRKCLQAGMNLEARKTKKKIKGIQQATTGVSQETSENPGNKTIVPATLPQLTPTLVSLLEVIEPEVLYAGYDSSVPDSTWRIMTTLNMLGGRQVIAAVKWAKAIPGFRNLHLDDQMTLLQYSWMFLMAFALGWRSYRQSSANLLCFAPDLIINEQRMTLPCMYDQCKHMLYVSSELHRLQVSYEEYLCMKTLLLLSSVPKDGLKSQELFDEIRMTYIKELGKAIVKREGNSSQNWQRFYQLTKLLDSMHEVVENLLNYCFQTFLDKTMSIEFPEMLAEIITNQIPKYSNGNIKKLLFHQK
assay remarks: GR-GFP Redistribution (AID 450); also: potency is read from the fitted curve at half-maximal effect
experimental context: U2OS GR-GFP nuclear translocation, laser cytometry, 2 h
Calls of active or inactive are those of the source.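 The calls were made as follows: active = compounds whose dose series gives a full or clear partial fitted curve of increased nuclear translocation; inconclusive = weak partial curve or effect only at the top dose; inactive = no dose-dependent translocation response.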

Task: Reported Potency for COc1ccc(C2SCC(=O)Nc3c2c(=O)[nH]n3C2CCCCC2)cc1 (stereo unspecified) : what is it?
Output: > 20.6 µM (inactive)

Task: Thanks! And CCCSP1(=S)NCCCO1 (stereo unspecified) ?
Output: > 20.6 µM (inactive)

Task: Thanks! And "COc1ccc2c(c1)[C@]13CCCC[C@@H]1[C@H](C2)N(C)CC3" ?
Output: > 46 µM (inactive)

Task: Thanks! And "CCOc1ccccc1-n1c(O)c(C=Nc2ccc(N(CC)CC)cc2)c(=O)[nH]c1=O" ?
Output: > 20.6 µM (inactive)

Task: Thanks! And "CC(=C1C(=O)c2ccccc2C1=O)N1CCN(CCN=Cc2c(O)n(C)c(=O)n(C)c2=O)CC1" ?
Output: > 20.6 µM (inactive)

Task: Thanks! And "C=C[C@@H]1CN2CC[C@H]1C[C@H]2[C@@H](O)c1ccnc2ccccc12" ?
Output: > 46 µM (inactive)

Task: Thanks! And "Nc1ncc(P(=S)(N2CCOCC2)N2CCOCC2)s1" ?
Output: > 20.6 µM (inactive)

Task: Thanks! And CC1(c2ccccc2)NCCN2C(=O)CSC21 (stereo unspecified) ?
Output: > 20.6 µM (inactive)

Task: Thanks! And "C=CCCN1C[C@@H]2C[C@H](C1)c1cccc(=O)n1C2" ?
Output: > 46 µM (inactive)

Task: Thanks! And C=CCOC(=O)C1=C(C)OC(N)=C(C#N)C12C(=O)N(CN1CCOCC1)c1ccccc12 (stereo unspecified) ?
Output: > 20.6 µM (inactive)

Task: Thanks! And "CCCCCC[C@H]1C(=O)O[C@@H](C)[C@H](NC(=O)c2cccc(NC=O)c2O)C(=O)O[C@@H](C)[C@@H]1OC(=O)CC(C)C" ?
Output: > 46 µM (inactive)
